Test system: 454973-116-R2-J3-PDC spheroids, viability, % test/control
experimental-protocol: Anticancer human tumor 454973-116-R2-J3-PDC patient-derived pancreatic carcinoma cell line growth inhibition [GQUAD]
measurement-conditions: curve of first compound; second compound 0.0316 µM; spheroids with HUVEC and MSC
pIC50 for assorted compounds
Please note pIC50 is a logarithmic value: minus log10 of concentration in mol/L. Answer with that number alone.

Example cases with answers are listed next.
CC1COCCN1c1cc(-c2ccnn2C)c2ccnc(-c3ccn[nH]3)c2n1 (stereo not given) + Cc1cnc(CNC(=O)c2c(=O)c3ccc(N4CCCN(C)CC4)nc3n3c2sc2ccccc23)cn1    7.37
CC1COCCN1c1cc(C2(O)CC3CCC(C2)O3)c2cnn(-c3ccn[nH]3)c2n1 (stereo not given) + Cc1[nH]c2ccc(F)cc2c1-c1nc2c3cccnc3c3ncccc3c2[nH]1    6.81
O=c1[nH]cc(F)c(=O)[nH]1 + CN(C)c1ccc(Nc2c3ccc(NC(=O)CCN4CCCC4)cc3nc3cc(NC(=O)CCN4CCCC4)ccc23)cc1    5.67
CCCS(=O)(=O)Nc1ccc(F)c(C(=O)c2c[nH]c3ncc(-c4ccc(Cl)cc4)cc23)c1F + Cc1[nH]c2ccc(F)cc2c1-c1nc2c3cccnc3c3ncccc3c2[nH]1    5.22
C#Cc1c(F)ccc2cc(O)cc(-c3ncc4c(N5CC6CCC(C5)N6)nc(OCC56CCCN5CC(F)C6)nc4c3F)c12 (stereo not given) + CN(C)c1ccc(Nc2c3ccc(NC(=O)CCN4CCCC4)cc3nc3cc(NC(=O)CCN4CCCC4)ccc23)cc1    7.38

Please find the next compound below.
Find the recorded pIC50 belonging to CC[C@@]1(O)C(=O)OCc2c1cc1n(c2=O)Cc2cc3c(CN(C)C)c(O)ccc3nc2-1 + CN(C)c1ccc(Nc2c3ccc(NC(=O)CCN4CCCC4)cc3nc3cc(NC(=O)CCN4CCCC4)ccc23)cc1 and report it.
7.34

----------
Tested on: 454973-116-R2-J3-PDC spheroids, viability, % test/control
experimental-protocol: Anticancer human tumor 454973-116-R2-J3-PDC cell line growth inhibition [GQUAD];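 also: spheroids exposed to compounds for seven days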;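 as to viability, T/C: 100% = DMSO vehicle control viability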
measurement-conditions: second compound 10 µM; first compound 0.0316 µM; stronger effect = lower value; spheroids with HUVEC and MSC
parameter: viability, T/C (%)
// units = %; emit number, no label

CC1COCCN1c1cc(C2(O)CC3CCC(C2)O3)c2cnn(-c3ccn[nH]3)c2n1 (stereo not given) + Cc1[nH]c2ccc(F)cc2c1-c1nc2c3cccnc3c3ncccc3c2[nH]1    79.5
CC1COCCN1c1cc(-c2ccnn2C)c2ccnc(-c3ccn[nH]3)c2n1 (stereo not given) + Cc1[nH]c2ccc(F)cc2c1-c1nc2c3cccnc3c3ncccc3c2[nH]1    81.6
C=CCn1c(=O)c2cnc(Nc3ccc(N4CCN(C)CC4)cc3)nc2n1-c1cccc(C(C)(C)O)n1 + Cc1cnc(CNC(=O)c2c(=O)c3ccc(N4CCCN(C)CC4)nc3n3c2sc2ccccc23)cn1    0.34
CC(=O)O[C@H]1C(=O)[C@@]2(C)[C@H]([C@H](OC(=O)c3ccccc3)[C@]3(O)C[C@H](OC(=O)[C@H](O)[C@@H](NC(=O)c4ccccc4)c4ccccc4)C(C)=C1C3(C)C)[C@]1(OC(C)=O)CO[C@@H]1C[C@@H]2O + Cc1cnc(CNC(=O)c2c(=O)c3ccc(N4CCCN(C)CC4)nc3n3c2sc2ccccc23)cn1    0.12
CC1COCCN1c1cc(C2(O)CC3CCC(C2)O3)c2cnn(-c3ccn[nH]3)c2n1 (stereo not given) + Cc1cnc(CNC(=O)c2c(=O)c3ccc(N4CCCN(C)CC4)nc3n3c2sc2ccccc23)cn1    0.12

// returns reported viability, T/C for input CC1COCCN1c1cc(-c2ccnn2C)c2ccnc(-c3ccn[nH]3)c2n1 (stereo not given) + CN(C)c1ccc(Nc2c3ccc(NC(=O)CCN4CCCC4)cc3nc3cc(NC(=O)CCN4CCCC4)ccc23)cc1
69.8

Fill in: viability, T/C of Cn1ncnc1[C@H]1c2n[nH]c(=O)c3cc(F)cc(c23)N[C@@H]1c1ccc(F)cc1 + Cc1cnc(CNC(=O)c2c(=O)c3ccc(N4CCCN(C)CC4)nc3n3c2sc2ccccc23)cn1 is ___
36.7

Can you share its viability, T/C? I mean this compound: Cc1cccc(N(C)C(=O)C2C(O)CCN2c2nc(C)cc(C(F)(F)F)c2C#N)c1 (stereo not given) + Cc1[nH]c2ccc(F)cc2c1-c1nc2c3cccnc3c3ncccc3c2[nH]1
105

Please report the recorded viability, T/C for COc1cccc2c1C(=O)c1c(O)c3c(c(O)c1C2=O)CC(O)(C(=O)CO)CC3OC1CC(N)C(O)C(C)O1 (stereo not given) + CN(C)c1ccc(Nc2c3ccc(NC(=O)CCN4CCCC4)cc3nc3cc(NC(=O)CCN4CCCC4)ccc23)cc1 .
79.1

I'd like to know its viability, T/C. The compound in question is COc1ccc([C@@H](O)c2cc(-c3ncnc4cc(N5CCOCC5)ccc34)c(F)cc2Cl)nn1 + Cc1[nH]c2ccc(F)cc2c1-c1nc2c3cccnc3c3ncccc3c2[nH]1
89.2
